Biological target: T1, Cyno CD33 ECD-HSA (cynomolgus monkey)
T1 construct: Cyno CD33 extracellular domain fused to monomeric human serum albumin and a six-histidine tag; also called C33W1
Experiment: ProteOn SPR, mAb captured by anti-human Fc, 1:1 Langmuir fit
attribute_measured: kon

- binder: "C33B52 (antibody, IgG1, V domains shown, huIgG1 F405L; also called C33F57; C33H42/C33L8) VH: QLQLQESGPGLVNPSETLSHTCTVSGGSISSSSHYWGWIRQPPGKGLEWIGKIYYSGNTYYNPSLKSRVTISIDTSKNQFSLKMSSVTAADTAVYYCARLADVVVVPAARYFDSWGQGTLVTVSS VL: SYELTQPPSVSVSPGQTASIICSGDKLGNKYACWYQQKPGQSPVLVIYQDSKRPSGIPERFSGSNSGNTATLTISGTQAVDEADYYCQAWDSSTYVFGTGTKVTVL"
  result: "313000 M⁻¹ s⁻¹"
- binder: "C33B82 (antibody, IgG1, V domains shown, huIgG1 F405L; also called C33F87; C33H78/C33L57) VH: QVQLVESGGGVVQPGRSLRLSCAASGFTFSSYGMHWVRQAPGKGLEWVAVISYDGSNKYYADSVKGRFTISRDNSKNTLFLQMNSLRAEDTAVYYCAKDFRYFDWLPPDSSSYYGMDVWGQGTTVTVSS VL: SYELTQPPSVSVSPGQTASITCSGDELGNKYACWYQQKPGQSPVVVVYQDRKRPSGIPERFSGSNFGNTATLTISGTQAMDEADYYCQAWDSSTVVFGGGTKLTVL"
  result: "545000 M⁻¹ s⁻¹"
- binder: "C33B79 (antibody, IgG1, V domains shown, huIgG1 F405L; also called C33F84; C33H74/C33L38) VH: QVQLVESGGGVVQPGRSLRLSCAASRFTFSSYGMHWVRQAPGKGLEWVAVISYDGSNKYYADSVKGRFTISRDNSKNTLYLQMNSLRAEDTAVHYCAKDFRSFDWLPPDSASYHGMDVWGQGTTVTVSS VL: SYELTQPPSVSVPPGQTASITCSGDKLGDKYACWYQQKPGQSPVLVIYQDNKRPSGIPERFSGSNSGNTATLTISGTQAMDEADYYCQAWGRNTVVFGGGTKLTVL"
  result: "548000 M⁻¹ s⁻¹"
